Source of measurements: patent US20050106305A1

Assay: Sensory stability of monatin and aspartame at pH 2.5, 3.0, 4.0 at 40° C.
Assay type: physicochemical
Conditions: phosphate/citrate buffer; pH 2.5, 40° C.; pseudo-first order assumed; read-out: Half-life (t½) of sweetness loss (converted)
Where a SMILES comes first, the peptide text is derived from it.
Examples of molecules with documented half-life follow.
Enter your answer as a number in days; do not include the unit.

# Molecule, half-life / days
measured = [
    ("NC(CC(O)(Cc1c[nH]c2ccccc12)C(=O)O)C(=O)O (racemic)", 65),
]

Using the record for COC(=O)[C@H](Cc1ccccc1)NC(=O)[C@@H](N)CC(=O)O [Aspartame, aspartame] (H-Asp-Phe-OMe) , report its half-life. 55
